System: A498 renal
assay.info: NCI tumour cell line growth inhibition, 48 h
measurement.label: TGI

Please review the entries below; each comes with its answer.
[[record]]
compound = "CC(=O)OC1COC(n2nc(/C=C/c3ccc(Cl)cc3)c(=O)n(/N=C/c3ccccc3)c2=S)C(OC(C)=O)C1OC(C)=O (stereo unspecified)"
measurement_label = "TGI"
meas_value = "> 100 µM"

[[record]]
compound = "N=c1c2c(-c3ccccc3)c(-c3ccccc3)n(Cc3ccccc3)c2ncn1CCCO"
measurement_label = "TGI"
meas_value = "19.7 µM"

[[record]]
compound = "CC1(C)C2CCC(N)(C2)C1N (stereo unspecified)"
measurement_label = "TGI"
meas_value = "> 100 µM"


// input: 6 compounds below; output: TGI for each
1. c1ccc(-c2cs[s+]c2)cc1
2. CC(C)C1OC2(C)OC(=N)C1(C#N)C(C#N)(C#N)C2C (stereo unspecified)
3. Cc1cc(OCc2nn(CN3CCN(C)CC3)c(=S)n2/N=C/c2ccc(-c3ccc(Cl)cc3Cl)o2)ccc1Cl
4. COc1cc2c(cc1OC)CC(=O)c1cc(OC)c(OC)cc1/C=C\2
5. COc1ccc2oc(=O)cc(C)c2c1
6. CC1CC(c2cccc3c2OCO3)=Nc2ccccc2S1 (stereo unspecified)

> 100 µM
> 100 µM
> 100 µM
> 12.5 µM
> 100 µM
> 100 µM

// input: 5 compounds below; output: TGI for each
1. O=C(Cn1cc(F)c(=O)[nH]c1=O)C12CC3CC(CC(C3)C1)C2
2. NC1CC(N)c2c(Br)sc(Br)c21 (stereo unspecified)
3. CN(C)c1ccc(-c2cc(-c3ccc(Nc4nc(Nc5ccccc5)nc(Nc5ccc(Cl)cc5)n4)cc3)nc(N)n2)cc1
4. Nc1ncnc2c1ncn2CC(O)C(=O)O (stereo unspecified)
5. COc1ccc(-c2cc(-c3ccc(Nc4ccnc5cc(Cl)ccc45)cc3)nc(N)c2C#N)cc1

1. > 100 µM
2. > 100 µM
3. 20.1 µM
4. > 100 µM
5. > 100 µM

// input: 2 compounds below; output: TGI for each
1. O=c1c2cc(Br)ccc2nc(-c2ccccc2Cl)n1NCC1(O)OCC(O)C(O)C1O (stereo unspecified)
2. O=C1/C(=C/c2ccc([N+](=O)[O-])o2)Oc2ccc(Br)cc21

> 100 µM
30.1 µM

====

Tested on: HOP-92 NSCLC
assay.info: NCI tumour cell line growth inhibition, 48 h
Where a SMILES comes first, the peptide text is derived from it. The star is where a group is joined. Cbz = O=C(OCc1ccccc1)*; Boc = CC(C)(C)OC(=O)*; Bn = c1ccc(C*)cc1
Could you please report measured TGI for the items listed next?
Answers are plain numbers, in µM.

Please review the entries below; each comes with its answer.
[[record]]
compound = "COc1ccc2c(c1)c(-c1nc(-c3c[nH]c4ncccc34)cs1)cn2CCCCN1CCOCC1"
measurement_label = "TGI"
meas_value = 4.17

[[record]]
compound = "Cc1nc2sc(C(=O)Nc3cccc4ccccc34)c(N)c2cc1C(=O)/C=C/c1ccccc1"
measurement_label = "TGI"
meas_value = 8.97

[[record]]
compound = "COc1cc(-c2c(C#N)c(N)c(C#N)c3c2COc2ccccc2-3)cc(OC)c1OC"
measurement_label = "TGI"
meas_value = 38.6

[[record]]
compound = "CN(c1ccc(NC(=O)Nc2ccc(OC(F)(F)F)cc2)cc1)c1ccnc(Nc2cccc(S(N)(=O)=O)c2)n1"
measurement_label = "TGI"
meas_value = 6.95

[[record]]
compound = "CC(C)(C)OC(=O)NC(Cc1ccc(OCc2ccccc2)cc1)C(=O)NC(CCCCNC(=O)OCc1ccccc1)C(=O)O (stereo not given) (Boc-Tyr(Bn)-Lys(Cbz)-OH; configuration not given here)"
measurement_label = "TGI"
meas_value = 48.5


// input: 4 compounds below; output: TGI for each
1. C/C([O-])=C1\Cc2ccccc2C1=O.C/C([O-])=C1\Cc2ccccc2C1=O.CC[O-].CC[O-].[Ti+4]
2. COc1cc(NCc2ccc3nc(-c4ccccc4)c(N)nc3c2)cc(OC)c1OC
3. NC(=O)c1cc([N+](=O)[O-])c(Cl)c([N+](=O)[O-])c1
4. COc1cc(Cn2c(=S)ss/c2=N\C(=S)N(C)C)cc(OC)c1OC

55.4
78.1
4.18
56.3

====

Test system: KM12 colon
assay.info: NCI tumour cell line growth inhibition, 48 h
Where a SMILES comes first, the peptide text is derived from it. The star is where a group is joined. Cbz = O=C(OCc1ccccc1)*; Boc = CC(C)(C)OC(=O)*; Bn = c1ccc(C*)cc1
Could you please report measured TGI for the items listed next?

[[record]]
molecule = "COP(=O)(OC)C(=NCc1ccccc1)NNc1ccc([N+](=O)[O-])cc1"
meas_value = "> 100 µM"

[[record]]
molecule = "COc1cc2c(cc1OC)CC(=O)c1cc(OC)c(OC)cc1/C=C\\2"
meas_value = "> 12.5 µM"

[[record]]
molecule = "O=C(O)C12C3C4C1C1C2C3C1(Br)C41OCCO1 (configuration not stated)"
meas_value = "> 100 µM"


// input: 8 molecules below; output: TGI for each
1. C(=Nc1ccc(-c2cc(-c3ccccc3)nc3ccc4ccccc4c23)cc1)c1ccccc1
2. C=CN1C(=O)OC[C@@H]1c1ccccc1
3. NC(=O)c1cc([N+](=O)[O-])c(Cl)c([N+](=O)[O-])c1
4. CS(=O)(=O)c1ccc(-c2cnc(N)c(C(=O)Nc3ccccc3)n2)cc1
5. CCOC(=O)c1cc(C2CCN(CC(C)CC)C2=S)c(-c2cc(C)no2)[nH]1 (configuration not stated)
6. CC(=O)O[C@@H]1[C@H]2[C@@H](OC(=O)c3ccccc3)[C@@H](C)C[C@]2(O)[C@H](OC(C)=O)[C@@]2(C)[C@@H]3CC(C)(C)C(=O)[C@]3(OC(C)=O)C[C@@]12C
7. COc1ccc(C2C(=O)C(Cl)N2Nc2nc(C)cc(=O)[nH]2)cc1OC (configuration not stated)
8. CC1(C)C2CCC(N)(C2)C1N (configuration not stated)

1. 68 µM
2. > 100 µM
3. 16.3 µM
4. > 100 µM
5. > 100 µM
6. > 25 µM
7. > 100 µM
8. > 100 µM

// input: 4 molecules below; output: TGI for each
1. C[C@]12CC[C@@H]3c4ccc(O)cc4CC[C@H]3[C@@H]1CC[C@@H]2NS(=O)(=O)c1cccc(C(F)(F)F)c1
2. CCN(CC)c1ccc(C2SCC(=O)N2c2ccc(NC(=O)c3ccc(N4C(=O)CSC4c4ccc(N(CC)CC)cc4)cc3)cc2)cc1 (configuration not stated)
3. Nc1ccc(C2NC(=O)Cc3c2ccc2ccccc32)cc1 (configuration not stated)
4. COc1cc(NCc2ccc3nc(-c4ccccc4)c(N)nc3c2)cc(OC)c1OC

11.8 µM
> 100 µM
> 100 µM
54.5 µM

// input: 4 molecules below; output: TGI for each
1. CCN(CCCN(CC)C(=O)Nc1ccccc1)C(=O)Nc1ccccc1
2. C=C(C(=O)O)C1CCC(CC/C=C(\C)CC/C=C(\C)CCC=C(C)C)CO1 (configuration not stated)
3. CC(C)(C)OC(=O)NC(Cc1ccc(OCc2ccccc2)cc1)C(=O)NC(CCCCNC(=O)OCc1ccccc1)C(=O)O (configuration not stated) (Boc-Tyr(Bn)-Lys(Cbz)-OH; configuration not given here)
4. COc1ccn2c(C(C)=O)cc(C(=O)c3ccc4c(c3)Sc3ccccc3N4)c2c1

1: > 100 µM; 2: 28.4 µM; 3: > 100 µM; 4: > 27.3 µM

// input: 3 molecules below; output: TGI for each
1. COc1ccc(Cc2c(N)[nH]c(=O)n(C)c2=O)cc1
2. NC(=O)NO
3. COC(=O)C1C2C=CC(C2)C1(C(=O)OC)S(=O)CC12CCC(CC1O)C2(C)C (configuration not stated)

> 100 µM
2500 µM
> 100 µM

// input: 7 molecules below; output: TGI for each
1. O=C1CCCCC1=C(I)I
2. C/C(=N\NC(=S)NC1CCCC1)c1ccccn1
3. NC(=O)c1oc([N+](=O)[O-])c(-c2ccccc2)c1-c1ccccc1
4. OCC1OC(Oc2cc(O)cc(/C=C/c3ccc(O)cc3)c2)C(O)C(O)C1O (configuration not stated)
5. O=C(Cc1ccccc1)NN1C(=O)C(Cl)C1c1ccc([N+](=O)[O-])cc1 (configuration not stated)
6. CN1CCN(c2nc(NCCCCNc3ccnc4cc(Cl)ccc34)c3ccccc3n2)CC1
7. O=C(c1ccccc1)[C@H]1Nc2ccc(Cl)cc2[C@H]2OCCC[C@@H]12

28.8 µM
> 83.2 µM
40.9 µM
> 100 µM
> 100 µM
25.1 µM
34.1 µM

// input: 7 molecules below; output: TGI for each
1. C=C1CC2(C[C@@H](c3ccccc3)O[C@@H](c3ccccc3)C2)OC1=O (some centres not stated)
2. O=c1[nH]c(=O)n(COCCO)c2ccc(Br)cc12
3. CN(CC(=O)O)c1ccc(/C=C/c2ccnc3ccccc23)cc1
4. O=C(c1ccco1)n1c2ccc(Br)cc2c2nc3ccccc3nc21
5. O=C(O)C(O)Cc1ccccn1 (configuration not stated)
6. c1cc(CSP234N5CCN2CCN3CCN4CC5)ccc1CSP123N4CCN1CCN2CCN3CC4
7. C=CCOC1=C(OCC=C)C(C2COC(C)(C)O2)OC1=O (configuration not stated)

1. 15.5 µM
2. > 100 µM
3. 41.2 µM
4. 97.6 µM
5. > 100 µM
6. > 100 µM
7. > 100 µM

// input: 6 molecules below; output: TGI for each
1. O=C(CCCCCCSc1nc(-c2ccccc2)cc(-c2ccccc2)n1)NO
2. Nc1c(Br)c(=O)[nH]c(=O)n1COCCO
3. Cc1nc2ccc(F)cc2c2c1CCO2
4. Cc1cnc(/N=c2\sc(C)cn2-c2ncc(C)s2)s1
5. COc1ccc(C/C(C)=C(\c2ccc(OCCN3CCOCC3)cc2)c2ccc(OC(=O)Cc3ccccc3)cc2)cc1
6. c1ccc(C(c2ccccc2)[P+](c2ccccc2)(c2ccccc2)c2ccccc2)cc1

1: 15.9 µM; 2: > 100 µM; 3: > 100 µM; 4: > 100 µM; 5: 3.37 µM; 6: 2.7 µM
